- study.system: UniProt:P21836
- test: biochemical
- Format: tissue-based, LACA, Brain
pIC50: −log10 of the molar value.
Threshold rule: pIC50 greater than or equal to 5 is satisfied; below that, not satisfied.

query.smiles | qualitative.label
O=c1cc(OCCCN2CCN(c3ccccn3)CC2)c2ccccc2o1 | not satisfied
O=c1cc(OCCCN2CCN(c3ccccc3)CC2)c2ccccc2o1 | satisfied

Task: # check: pIC50 of O=c1cc(OCCCCN2CCN(c3ccccc3F)CC2)c2ccccc2o1 is greater than or equal to 5
Output: not satisfied

Task: # check: pIC50 of O=C(Oc1cc(=O)oc2ccccc12)N1CCN(c2ccccc2)CC1 is greater than or equal to 5
Output: not satisfied

Task: # check: pIC50 of O=c1cc(OCCCCN2CCN(c3ncccn3)CC2)c2ccccc2o1 is greater than or equal to 5
Output: not satisfied

Task: # check: pIC50 of O=c1cc(OCCCCN2CCN(c3ccccn3)CC2)c2ccccc2o1 is greater than or equal to 5
Output: not satisfied

Task: # check: pIC50 of O=c1cc(OCCCN2CCN(c3ccccc3F)CC2)c2ccccc2o1 is greater than or equal to 5
Output: satisfied

Task: # check: pIC50 of O=c1cc(OCCCNCCc2ccccc2)c2ccccc2o1 is greater than or equal to 5
Output: not satisfied

Task: # check: pIC50 of O=c1cc(OCCCN2CCN(c3ncccn3)CC2)c2ccccc2o1 is greater than or equal to 5
Output: not satisfied

----------
- study.system: Acetylcholinesterase (Mus musculus)
- Sequence (P21836 whole entry): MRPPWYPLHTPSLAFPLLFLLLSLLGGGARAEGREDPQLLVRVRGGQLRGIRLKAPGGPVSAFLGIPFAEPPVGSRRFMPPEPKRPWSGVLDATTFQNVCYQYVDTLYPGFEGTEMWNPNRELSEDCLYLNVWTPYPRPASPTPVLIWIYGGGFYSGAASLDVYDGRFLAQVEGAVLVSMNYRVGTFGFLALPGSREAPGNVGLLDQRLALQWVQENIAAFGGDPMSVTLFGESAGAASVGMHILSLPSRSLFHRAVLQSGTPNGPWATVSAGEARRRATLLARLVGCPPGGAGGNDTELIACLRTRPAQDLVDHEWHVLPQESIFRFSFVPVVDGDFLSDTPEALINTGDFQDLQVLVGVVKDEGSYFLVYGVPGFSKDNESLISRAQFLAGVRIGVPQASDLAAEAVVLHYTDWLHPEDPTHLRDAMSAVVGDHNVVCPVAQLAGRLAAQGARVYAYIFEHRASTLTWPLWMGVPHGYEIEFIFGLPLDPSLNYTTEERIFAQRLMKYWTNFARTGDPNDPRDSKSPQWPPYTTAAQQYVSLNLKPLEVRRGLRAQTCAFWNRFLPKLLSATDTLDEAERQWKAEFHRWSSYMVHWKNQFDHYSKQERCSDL
measured.attribute: IC50

query.smiles | IC50
O=c1cc(OCCCCN2CCN(c3ccccc3)CC2)c2ccccc2o1 | 14.9 µM
O=C(NCCc1ccccc1)Oc1cc(=O)oc2ccccc12 | 83.4 µM

Here's the next entry for you.
Task: Param readout= IC50; system= Acetylcholinesterase (Mus musculus); entry= COc1ccc(CCNCCCOc2cc(=O)oc3ccccc23)cc1OC ; returns value.
Output: 47.1 µM

Reference for the values: ChEMBL document CHEMBL4431342
